# procedure_text: Antiproliferative activity against human HepG2 cells assessed as cell viability at 50 uM after 48 hrs by WST1 assay (reference value: 100%)
# Assay type: cell-based
# condition_parameters: read-out: Activity
readout_name: viability at 48 h, 50 µM (%)
Numeric only. Scale: %

Form field: reported viability at 48 h, 50 µM of O=C(O)Cc1cccc(NC(=O)c2ccccc2NC(=O)c2ccc(-c3ccccc3)cc2)c1
33.6

Consider the compound Cc1ccc(C(=O)O)cc1NC(=O)c1ccccc1NC(=O)c1ccc(C(C)(C)C)cc1 and give its measured viability at 48 h, 50 µM.
72

Value lookup for viability at 48 h, 50 µM; key = Cc1ccc(NC(=O)c2ccccc2NC(=O)c2ccc(C(C)(C)C)cc2)cc1C(=O)O
82.5

Consider the compound shown here: O=C(O)Cc1cccc(NC(=O)c2ccccc2NC(=O)c2ccc3ccccc3c2)c1 What is its recorded viability at 48 h, 50 µM?
89.3
